# credit: paper PMC10372819

# method-description: In vivo pharmacokinetics in Sprague-Dawley rats
# test-settings: male, rat, plasma, iv, 1 mg/kg
measurement-type: Cmax (ng/mL)

>>> recorded_result("N#Cc1ccc(Nc2ncc(CO)c(Oc3c(F)cc(-c4ccc(C#N)cc4)cc3F)n2)cc1 [9g]")
296

* * *

# method-description: In vivo pharmacokinetics in Sprague-Dawley rats
# test-settings: male, rat, plasma, po, 10 mg/kg, AUC0‒t, 10.0 mg/kg p.o.
measurement-type: AUC (ng·h/mL)

>>> recorded_result("N#Cc1ccc(Nc2ncc(CO)c(Oc3c(F)cc(-c4ccc(C#N)cc4)cc3F)n2)cc1")
159

* * *

# method-description: In vivo pharmacokinetics in Sprague-Dawley rats
# test-settings: male, rat, plasma, po, 10 mg/kg, MRT0‒t, 10.0 mg/kg p.o.
measurement-type: MRT (h)

>>> recorded_result("N#Cc1ccc(Nc2ncc(CO)c(Oc3c(F)cc(-c4ccc(C#N)cc4)cc3F)n2)cc1")
3.91
